Target: MLK3 (Homo sapiens)
Experiment: Kinase profiling MLK3
Assay type: biochemical
Conditions: 100 micromolar inhibitor concentration; 100 is no change
Catalogue of residual kinase activity, MLK3 values

structureAsSmiles | residual kinase activity, MLK3
CC(=O)Nc1nc2cc(C)ccc2s1 | 35
O=C(Nc1nc2ccc(O)cc2s1)c1ccccc1 | 5
COc1ccc2sc(NC(=O)c3cccc(C(N)=O)c3)nc2c1 | 73
O=C(Nc1nc2ccc(O)cc2s1)c1cccnc1 | 26
O=C(Nc1nc2cc(O)ccc2s1)c1ccccn1 | 57

---

Test system: CK2
Assay: Kinase profiling CK2
Format: biochemical
Settings: 100 micromolar inhibitor concentration; 100 is no change
Values of residual kinase activity, CK2 greater than or equal to 90 map to MET; values below map to NOT MET.

structureAsSmiles | labelClass
CC(=O)Nc1nc2cc(C(F)(F)F)ccc2s1 | MET
COc1ccc2sc(NC(C)=O)nc2c1 | NOT MET
O=C(Nc1nc2cc(O)ccc2s1)c1ccncc1 | NOT MET
O=C(Nc1nc2ccc(O)cc2s1)c1cccnc1 | NOT MET
N#Cc1ccc2nc(NC(=O)c3ccccc3)sc2c1 | NOT MET
O=C(Nc1nc2ccc(C(F)(F)F)cc2s1)c1ccccc1 | NOT MET
CC(=O)Nc1nc2ccccc2s1 | MET

---

Biological target: JNK1 (Homo sapiens, UniProt P45983)
Sequence (P45983 whole entry, species assumed): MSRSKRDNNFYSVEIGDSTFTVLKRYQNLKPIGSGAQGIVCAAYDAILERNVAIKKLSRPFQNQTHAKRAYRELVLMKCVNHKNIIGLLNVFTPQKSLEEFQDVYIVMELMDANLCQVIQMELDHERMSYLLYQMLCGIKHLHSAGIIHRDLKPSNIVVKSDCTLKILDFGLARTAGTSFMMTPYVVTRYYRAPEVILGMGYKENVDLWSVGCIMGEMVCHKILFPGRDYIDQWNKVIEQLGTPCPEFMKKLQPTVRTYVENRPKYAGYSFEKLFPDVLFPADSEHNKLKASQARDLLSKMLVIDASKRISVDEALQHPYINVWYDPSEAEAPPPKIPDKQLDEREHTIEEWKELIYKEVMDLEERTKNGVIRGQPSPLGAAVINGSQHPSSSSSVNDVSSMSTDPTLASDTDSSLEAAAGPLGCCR
Test: Kinase profiling JNK1
Type: biochemical
Details: 100 micromolar inhibitor concentration; 100 is no change
Rule: residual kinase activity, JNK1 of 90 or more gives Y; anything lower gives N.

compound | labelClass
CC(=O)Nc1ccc(C(=O)Nc2nc3ccc(O)cc3s2)cc1 | N
O=C(Nc1nc2cc(O)ccc2s1)c1ccccc1 | N
COc1ccc2sc(NC(=O)c3cccc(NC(C)=O)c3)nc2c1 | Y
CC(=O)Nc1nc2cc(C)ccc2s1 | Y
O=C(Nc1nc2ccc(F)cc2s1)c1ccccc1 | Y
COC(=O)c1cccc(C(=O)Nc2nc3cc(OC)ccc3s2)c1 | Y
COc1ccc2sc(NC(=O)c3ccc(NC(C)=O)cc3)nc2c1 | Y
O=C(Nc1nc2ccc(O)cc2s1)c1ccccn1 | Y
N#Cc1ccc2nc(NC(=O)c3ccccc3)sc2c1 | N
CC(=O)Nc1nc2ccc(F)cc2s1 | N
COC(=O)c1cccc(C(=O)Nc2nc3ccc(F)cc3s2)c1 | Y
O=C(Nc1nc2cc(O)ccc2s1)c1ccccn1 | Y
CC(=O)NC(C)C(=O)Nc1nc2ccc(C(F)(F)F)cc2s1 (centres unmarked) | N
COc1ccc2sc(NC(=O)c3cccc(C(N)=O)c3)nc2c1 | N
CC(=O)Nc1ccc(C(=O)Nc2nc3cc(O)ccc3s2)cc1 | Y
O=C(Nc1nc2ccc(C(F)(F)F)cc2s1)c1ccccc1 | N
O=C(Nc1nc2cc(O)ccc2s1)c1cccnc1 | Y

---

# maps each entry to its residual kinase activity, MLK3
Target: MLK3 (Homo sapiens, UniProt Q16584)
Sequence (Q16584 whole entry, species assumed): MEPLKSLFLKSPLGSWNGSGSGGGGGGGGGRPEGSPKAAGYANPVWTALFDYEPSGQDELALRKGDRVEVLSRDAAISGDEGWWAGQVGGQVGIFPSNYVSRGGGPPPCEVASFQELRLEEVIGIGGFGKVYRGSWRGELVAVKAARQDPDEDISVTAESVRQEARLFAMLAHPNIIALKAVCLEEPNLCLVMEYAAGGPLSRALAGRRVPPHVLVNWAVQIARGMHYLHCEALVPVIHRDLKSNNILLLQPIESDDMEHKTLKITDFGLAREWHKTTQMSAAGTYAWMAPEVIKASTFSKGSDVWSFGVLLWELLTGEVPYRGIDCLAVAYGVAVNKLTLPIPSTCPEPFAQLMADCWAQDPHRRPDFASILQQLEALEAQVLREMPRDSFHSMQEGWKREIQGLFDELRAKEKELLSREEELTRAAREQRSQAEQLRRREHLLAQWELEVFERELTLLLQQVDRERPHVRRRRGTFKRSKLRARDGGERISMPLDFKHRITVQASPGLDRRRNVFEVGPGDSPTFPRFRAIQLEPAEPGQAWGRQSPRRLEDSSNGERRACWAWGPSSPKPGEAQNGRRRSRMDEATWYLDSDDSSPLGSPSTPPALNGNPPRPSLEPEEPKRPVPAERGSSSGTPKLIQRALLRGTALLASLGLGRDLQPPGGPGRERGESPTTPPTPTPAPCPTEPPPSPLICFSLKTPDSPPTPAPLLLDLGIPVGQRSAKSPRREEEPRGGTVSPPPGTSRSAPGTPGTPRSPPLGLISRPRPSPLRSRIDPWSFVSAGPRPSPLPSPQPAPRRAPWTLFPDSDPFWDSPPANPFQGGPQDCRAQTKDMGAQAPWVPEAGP
Assay: Kinase profiling MLK3
Assay type: biochemical
Details: 100 micromolar inhibitor concentration; 100 is no change

structureAsSmiles | targetOrTestSystem | residual kinase activity, MLK3
CC(=O)Nc1nc2ccccc2s1 | MLK3 (Homo sapiens, UniProt Q16584) | 71
O=C(Nc1nc2cc(O)ccc2s1)c1cccnc1 | MLK3 (Homo sapiens, UniProt Q16584) | 48
O=C(Nc1nc2ccc(O)cc2s1)c1ccncc1 | MLK3 (Homo sapiens, UniProt Q16584) | 30
O=C(Nc1nc2ccc(O)cc2s1)c1ccccn1 | MLK3 (Homo sapiens, UniProt Q16584) | 46
COC(=O)c1cccc(C(=O)Nc2nc3ccc(F)cc3s2)c1 | MLK3 (Homo sapiens, UniProt Q16584) | 68
